Test system: 2-2 corn promoter
assay_explanation: Transient GUS expression assay, 2-2 corn promoter/GUS constructions in transformed rice protoplasts
conditions_used: rice protoplasts transformed with pTDS133, compound at 100 μg/l
Documented AVE. INDUCTION across a set of compounds

{"columns": ["compound", "AVE. INDUCTION"],
 "data": [
  ["CCCCNC(=O)NS(=O)(=O)c1cccc(C)c1S(=O)(=O)CCC [Compound 15]", 24],
  ["CCCCNC(=O)NS(=O)(=O)c1ccoc1C(=O)OC [Compound 14]", 27.3],
  ["CC(C)(C)NC(=O)NS(=O)(=O)c1ccc(Cl)nc1Cl [Compound 21]", 24.2],
  ["CCCNC(=O)NS(=O)(=O)c1ccccn1 [Compound 20]", 38.6],
  ["CN(C)C(=O)c1cccnc1S(=O)(=O)NC(N)=O [Compound 18]", 1.6],
  ["CCCCNC(=O)NS(=O)(=O)c1ccccc1S(=O)(=O)N(C)C(F)(F)C(F)F [Compound 16]", 30],
  ["NC(=O)NS(=O)(=O)c1ccccc1Cl [Compound 5]", 7.75],
  ["CCCCNC(=O)NS(=O)(=O)c1cnccc1Cl [Compound 19]", 5.2],
  ["CNC(=O)NS(=O)(=O)c1c(C)cccc1OC [Compound 17]", 16.6]
]}

---

Tested on: 2-2 corn promoter
assay_explanation: Transient GUS expression assay, 2-2 corn promoter/GUS constructions in transformed rice protoplasts
conditions_used: rice protoplasts transformed with pTDS133, compound at 100 μg/l
endpoint: Assay 3 (induction of GUS activity)

{"columns": ["molecule", "readout_value"],
 "data": [
  ["NC(=O)NS(=O)(=O)c1ccccc1Cl [Compound 5]", 43],
  ["CNC(=O)NS(=O)(=O)c1c(C)cccc1OC [Compound 17]", 16.6],
  ["CCCCNC(=O)NS(=O)(=O)c1cccc(C)c1S(=O)(=O)CCC [Compound 15]", 24.1],
  ["CCCNC(=O)NS(=O)(=O)c1ccccn1 [Compound 20]", 38.6],
  ["CCCCNC(=O)NS(=O)(=O)c1ccccc1S(=O)(=O)N(C)C(F)(F)C(F)F [Compound 16]", 30.2]
]}
